Ref: patent US20110313156A1

Catalogue of remaining activity at 10 µM values
Target: His6-PDK1 (aa 52-556) (Homo sapiens)
Construct: 15 μL His6-PDK1 (aa 52-556) 3.33 ng/well); host or cells: baculovirus-infected insect cells
Sequence (O15530 52-556): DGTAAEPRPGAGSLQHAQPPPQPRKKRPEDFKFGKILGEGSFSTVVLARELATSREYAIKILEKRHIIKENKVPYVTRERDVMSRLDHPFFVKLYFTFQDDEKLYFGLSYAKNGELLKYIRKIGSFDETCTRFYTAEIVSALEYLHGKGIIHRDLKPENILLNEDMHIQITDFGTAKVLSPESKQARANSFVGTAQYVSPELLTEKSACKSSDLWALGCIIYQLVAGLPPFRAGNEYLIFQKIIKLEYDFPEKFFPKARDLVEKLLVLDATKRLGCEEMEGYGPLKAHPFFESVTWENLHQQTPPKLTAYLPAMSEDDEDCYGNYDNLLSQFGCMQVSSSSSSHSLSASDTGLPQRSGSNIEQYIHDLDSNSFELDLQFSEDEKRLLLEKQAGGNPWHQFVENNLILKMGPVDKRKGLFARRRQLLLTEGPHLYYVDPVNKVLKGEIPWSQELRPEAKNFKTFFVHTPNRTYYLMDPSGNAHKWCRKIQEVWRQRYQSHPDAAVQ
Assay: PDK1 kinase assay III (with Tween 20)
Type: biochemical
Settings: compound at 10 μM; PDK1 kinase assay III (values without asterisk); read-out: % CTL (residual activity of the enzyme relative to DMSO control)
Express your answer as a number followed by its unit.

These solved cases illustrate the format of a correct answer.
- mol: "Cc1c(C(=O)NC/C=C/c2ccc3nc(Nc4ccc(N(C)C5CCN(C)CC5)cc4)ncc3c2)c(=O)n(Cc2ccc(F)c(F)c2)n1C"
  remaining activity at 10 µM: "16.6%"
- mol: "CCOC(=O)c1ccc(Nc2ncc3cc(/C=C/CNC(=O)c4cncn(Cc5ccc(F)c(F)c5)c4=O)ccc3n2)cc1"
  remaining activity at 10 µM: "33.4%"
- mol: "Cc1nc[nH]c1/C=C1\\C(=O)Nc2cc(/C=C/CNC(=O)c3c(C)n(C)n(Cc4ccccc4)c3=O)ccc21"
  remaining activity at 10 µM: "18.6%"
- mol: "Cc1c(C(=O)NC/C=C/c2ccc3nc(Nc4ccc(C(=O)O)cc4)ncc3c2)c(=O)n(Cc2ccc(F)c(F)c2)n1C"
  remaining activity at 10 µM: "12.9%"

Query: If you can, please state the reported remaining activity at 10 µM value of Cc1c(C(=O)NCC#Cc2ccc3nc(Nc4ccc(C(=O)N(C)CCO)cc4)ncc3c2)c(=O)n(Cc2ccc(F)c(F)c2)n1C .
Reply: 14.4%

====

Biological target: His6-PDK1 (aa 52-556) (Homo sapiens, UniProt O15530)
Construct: 15 μL His6-PDK1 (aa 52-556) 3.33 ng/well); host or cells: baculovirus-infected insect cells
Sequence (O15530 52-556): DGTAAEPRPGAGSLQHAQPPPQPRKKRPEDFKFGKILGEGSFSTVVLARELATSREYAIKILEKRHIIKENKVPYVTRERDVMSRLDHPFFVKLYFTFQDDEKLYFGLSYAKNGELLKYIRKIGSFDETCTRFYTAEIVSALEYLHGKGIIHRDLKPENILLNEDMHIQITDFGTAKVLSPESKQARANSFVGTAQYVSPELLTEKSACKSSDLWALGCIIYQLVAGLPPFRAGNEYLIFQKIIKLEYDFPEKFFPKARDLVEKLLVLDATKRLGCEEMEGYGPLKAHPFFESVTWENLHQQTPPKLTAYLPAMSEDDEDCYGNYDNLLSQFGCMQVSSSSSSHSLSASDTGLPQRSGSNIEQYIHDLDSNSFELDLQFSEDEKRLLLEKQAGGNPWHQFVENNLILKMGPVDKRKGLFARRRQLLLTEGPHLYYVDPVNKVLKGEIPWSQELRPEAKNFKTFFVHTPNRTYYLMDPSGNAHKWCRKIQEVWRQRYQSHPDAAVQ
Experiment: PDK1 kinase assay III (with Tween 20)
Assay type: biochemical
Details: compound at 10 μM; PDK1 kinase assay III (values without asterisk); read-out: % CTL (residual activity of the enzyme relative to DMSO control)
Lab note: anything with remaining activity at 10 µM below 20% is marked T; values at 20% or higher are marked F.

Some solved entries appear below for comparison.
- mol: "Cc1c(C(=O)NCC#Cc2ccc3c(-c4ccc[nH]4)n[nH]c3c2)c(=O)n(Cc2ccc(F)c(F)c2)n1C"
  qualitativeLabel: "T"
- mol: "CN1CCC(Nc2ccc(Nc3ncc4cc(C#CCNC(=O)c5cc(Cl)nn(Cc6ccc(F)c(F)c6)c5=O)ccc4n3)cc2F)CC1"
  qualitativeLabel: "T"
- mol: "Nc1ncc2cc(/C=C/CNC(=O)c3cncn(Cc4ccc(F)c(F)c4)c3=O)ccc2n1"
  qualitativeLabel: "F"
- mol: "Cc1c(C(=O)NCC#Cc2ccc3nc(NC4CCOCC4)ncc3c2)c(=O)n(Cc2ccc(F)c(F)c2)n1C"
  qualitativeLabel: "F"

Query: A record lists COc1cc(Nc2ncc3cc(/C=C/CNC(=O)c4cncn(Cc5ccc(F)c(F)c5)c4=O)ccc3n2)ccc1C(=O)NC1CCN(C)CC1 . Is its remaining activity at 10 µM below 20%?
Reply: F
